assay: modulators of S6 phosphorylation in cells, primary screen, cell-based, A549, cytoblot, luminescence, serum-stimulated (AID 1158); conditions: A549 phospho-S6 cytoblot, 5 h, higher = more signal;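 note: serum-stimulated A549 lung adenocarcinoma cells; signal is phosphorylated S6 detected by cytoblot immunostaining with HRP secondary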
TEST READOUT: z-score

Past entries and their recorded results:
Input: Annotate the compound C=CCC(OC(C)=O)[C@@H]1[C@@H](N(Cc2ccc(-c3ccccc3)cc2)C(=O)c2ccc(-c3ccccc3)cc2)c2cc(OCCCO)ccc2N1C(=O)Cc1ccc(OC)cc1 (some centres not stated) with its measured z-score.
Output: -0.192

Input: // fetch z-score given entry CCC1=C2CN(Cc3ccccc3Br)[C@@H]([C@@H](O)Cc3ccccc3)C2C=CCC1 (some centres not stated)
Output: 1.56

Input: Indicate the recorded z-score value for this compound: `Cc1ccc(S[C@]2(C(=O)NC(C)C)CC(=O)N(C3Cc4ccccc4C3)[C@@H]2c2ccc(CO)cc2)cc1`
Output: 1.95

***
Input: Report z-score for `O=C1O[C@@H](c2ccccc2)[C@@H](c2ccccc2)N2[C@@H](c3ccc(O)cc3)[C@]3(C(=O)Nc4ccc(C#CC5(O)CCCCCC5)cc43)[C@@H](C(=O)Nc3nc4ccccc4s3)[C@H]12`
Output: 1.16
